conditions: 333.15 K; 101.33 kPa; Liquid; Vibrating tube method
metric: mass density (kg/m3)

compound	metric	unit of measure	readout number
CCCCCCn1cc[n+](CCC#N)c1.O=S(=O)([O-])C(F)(F)F	mass density	kg/m3	1260.2
CCCCCCn1cc[n+](CCC#N)c1.O=C([O-])c1cccc(S(=O)(=O)O)c1 [3-(2-cyanoethyl)-1-hexyl-1H-imidazolium 3-sulfobenzoate]	mass density	kg/m3	1221.8
CCCCC(CC)COC(=O)CC(C(=O)OCC(CC)CCCC)S(=O)(=O)[O-].CCCCCC[n+]1ccn(CCC#N)c1 (stereo not given)	mass density	kg/m3	1064.4
CCCCCCn1cc[n+](CCC#N)c1.O=S(=O)([O-])c1ccccc1 [3-(2-cyanoethyl)-1-hexyl-1H-imidazolium benzenesulfonate]	mass density	kg/m3	1199.7
CCCCCCCCCCCCOS(=O)(=O)[O-].CCCCCCn1cc[n+](CCC#N)c1 [3-(2-cyanoethyl)-1-hexyl-1H-imidazolium dodecyl sulfate]	mass density	kg/m3	1075.1

====

conditions: 298.15 K; 101.33 kPa; Liquid
metric: viscosity (mPa·s)

compound	metric	unit of measure	readout number
CCCCCCn1cc[n+](CCC#N)c1.O=C([O-])c1cccc(S(=O)(=O)O)c1 [3-(2-cyanoethyl)-1-hexyl-1H-imidazolium 3-sulfobenzoate]	viscosity	mPa·s	11463

(I) CCCCCCCCCCCCOS(=O)(=O)[O-].CCCCCCn1cc[n+](CCC#N)c1 [3-(2-cyanoethyl)-1-hexyl-1H-imidazolium dodecyl sulfate]
(II) CCCCCCn1cc[n+](CCC#N)c1.O=S(=O)([O-])C(F)(F)F
(III) CCCCC(CC)COC(=O)CC(C(=O)OCC(CC)CCCC)S(=O)(=O)[O-].CCCCCC[n+]1ccn(CCC#N)c1 (stereo not given)
(IV) CCCCCCn1cc[n+](CCC#N)c1.O=S(=O)([O-])c1ccccc1 [3-(2-cyanoethyl)-1-hexyl-1H-imidazolium benzenesulfonate]
Sort by viscosity, descending. List labels; respect the requested ordering. III, I, IV, II
(III: 19896 mPa·s, I: 13770 mPa·s, IV: 4268.1 mPa·s, II: 1469.7 mPa·s)

====

details: 338.15 K; 101.33 kPa; Liquid; Vibrating tube method
metric: mass density (kg/m3)

compound	unit of measure	mass density
CCCCC(CC)COC(=O)CC(C(=O)OCC(CC)CCCC)S(=O)(=O)[O-].CCCCCC[n+]1ccn(CCC#N)c1 (stereo not given)	kg/m3	1061
CCCCCCn1cc[n+](CCC#N)c1.O=S(=O)([O-])C(F)(F)F	kg/m3	1256.6
CCCCCCn1cc[n+](CCC#N)c1.O=S(=O)([O-])c1ccccc1 [3-(2-cyanoethyl)-1-hexyl-1H-imidazolium benzenesulfonate]	kg/m3	1196.5
CCCCCCCCCCCCOS(=O)(=O)[O-].CCCCCCn1cc[n+](CCC#N)c1 [3-(2-cyanoethyl)-1-hexyl-1H-imidazolium dodecyl sulfate]	kg/m3	1071.9
CCCCCCn1cc[n+](CCC#N)c1.O=C([O-])c1cccc(S(=O)(=O)O)c1 [3-(2-cyanoethyl)-1-hexyl-1H-imidazolium 3-sulfobenzoate]	kg/m3	1218.6

====

settings: 343.15 K; 101.33 kPa; Liquid; Vibrating tube method
metric: mass density (kg/m3)

molecule	metric	readout number
CCCCCCCCCCCCOS(=O)(=O)[O-].CCCCCCn1cc[n+](CCC#N)c1 [3-(2-cyanoethyl)-1-hexyl-1H-imidazolium dodecyl sulfate]	mass density	1068.8
CCCCCCn1cc[n+](CCC#N)c1.O=S(=O)([O-])C(F)(F)F	mass density	1253.1
CCCCCCn1cc[n+](CCC#N)c1.O=S(=O)([O-])c1ccccc1 [3-(2-cyanoethyl)-1-hexyl-1H-imidazolium benzenesulfonate]	mass density	1193.3
CCCCCCn1cc[n+](CCC#N)c1.O=C([O-])c1cccc(S(=O)(=O)O)c1 [3-(2-cyanoethyl)-1-hexyl-1H-imidazolium 3-sulfobenzoate]	mass density	1215.4
CCCCC(CC)COC(=O)CC(C(=O)OCC(CC)CCCC)S(=O)(=O)[O-].CCCCCC[n+]1ccn(CCC#N)c1 (stereo not given)	mass density	1057.6
